# Test system: Nakaseomyces glabratus
# Measurement notes: Antifungal activity against Candida glabrata CCC 115 after 48 hrs by broth microdilution technique
# Format: functional
# Conditions used: CCC 115, 48 h
Would you mind telling me the reported MIC50 of each entry?
Answers are plain numbers, in µg/mL.

Field: example entries. Status: answers known.
1. Fc1ccc2nc(/C=C/c3ccccn3)ccc2c1
15.6
2. CCc1ccc2nc(-c3ccccn3)ccc2c1
62.5
3. Cc1ccc2nc(-c3ccncc3)ccc2c1
7.8
4. C(=C\c1ccc2ccccc2n1)/c1ccncc1
31.2

Shifting focus to the compound that follows.
Recorded MIC50 for c1ccc2nc(-c3ccncc3)ccc2c1 , please?
15.6

====

# System: Candida albicans
# Measurement notes: Antifungal activity against Candida albicans ATCC 10231 after 48 hrs by broth microdilution technique
# Format: functional
# Conditions used: ATCC 10231, 48 h
Quantity kind: MIC50

1. Cc1ccc2nc(-c3ccncc3)ccc2c1
15.6 µg/mL

Provide MIC50 for all items below, preserving their order.
1. CCc1ccc2nc(-c3ccccn3)ccc2c1
2. C(=C\c1ccc2ccccc2n1)/c1ccncc1
3. c1ccc2nc(-c3ccncc3)ccc2c1

["7.8 µg/mL", "7.8 µg/mL", "7.8 µg/mL"]

Provide MIC50 for all items below, preserving their order.
1. Fc1ccc2nc(/C=C/c3ccccn3)ccc2c1
2. Clc1ccc2nc(/C=C/c3ccncc3)ccc2c1

["15.6 µg/mL", "15.6 µg/mL"]

====

# Tested on: Pichia kudriavzevii
# Measurement notes: Antifungal activity against Candida krusei CCC 117 after 48 hrs by broth microdilution technique
# Type: functional
# Conditions used: CCC 117, 48 h
Quantity kind: MIC80

1. Fc1ccc2nc(/C=C/c3ccccn3)ccc2c1
31.2 µg/mL

Provide MIC80 for all items below, preserving their order.
1. Clc1ccc2nc(/C=C/c3ccncc3)ccc2c1
2. Cc1ccc2nc(-c3ccncc3)ccc2c1
3. C(=C\c1ccc2ccccc2n1)/c1ccncc1

["> 250 µg/mL", "62.5 µg/mL", "31.2 µg/mL"]

Provide MIC80 for all items below, preserving their order.
1. c1ccc2nc(-c3ccncc3)ccc2c1
2. CCc1ccc2nc(-c3ccccn3)ccc2c1
3. C[C@@H]1[C@H](O)[C@@H](C)/C=C/C=C/C=C/C=C/C=C/C=C/C=C/[C@H](O[C@@H]2O[C@H](C)[C@@H](O)[C@H](N)[C@@H]2O)C[C@@H]2O[C@](O)(C[C@@H](O)C[C@@H](O)[C@H](O)CC[C@@H](O)C[C@@H](O)CC(=O)O[C@H]1C)C[C@H](O)[C@H]2C(=O)O

1: 62.5 µg/mL; 2: 62.5 µg/mL; 3: 0.39 µg/mL

====

# System: Cryptococcus neoformans
# Measurement notes: Antifungal activity against Cryptococcus neoformans IM 983036 after 48 hrs by broth microdilution technique
# Format: functional
# Conditions used: IM 983036, 48 h
Quantity kind: MIC50 (µg/mL)
Answers are plain numbers, in µg/mL.

Provide MIC50 for all items below, preserving their order.
1. Cc1ccc2nc(-c3ccncc3)ccc2c1
2. c1ccc2nc(-c3ccncc3)ccc2c1
3. Clc1ccc2nc(/C=C/c3ccncc3)ccc2c1
4. C(=C\c1ccc2ccccc2n1)/c1ccncc1
5. Fc1ccc2nc(/C=C/c3ccccn3)ccc2c1

1: 31.2; 2: 7.8; 3: 7.8; 4: 7.8; 5: 31.2

Recorded MIC50 for CCc1ccc2nc(-c3ccccn3)ccc2c1 , please?
3.9

====

Would you mind telling me the reported MIC80 of each entry?
# System: Cryptococcus neoformans
# Measurement notes: Antifungal activity against Cryptococcus neoformans IM 972751 after 48 hrs by broth microdilution technique
# Type: functional
# Conditions used: IM 972751, 48 h
One number for each entry, in µg/mL.

Field: example entries. Status: answers known.
1) Fc1ccc2nc(/C=C/c3ccccn3)ccc2c1
31.2
2) C[C@@H]1[C@H](O)[C@@H](C)/C=C/C=C/C=C/C=C/C=C/C=C/C=C/[C@H](O[C@@H]2O[C@H](C)[C@@H](O)[C@H](N)[C@@H]2O)C[C@@H]2O[C@](O)(C[C@@H](O)C[C@@H](O)[C@H](O)CC[C@@H](O)C[C@@H](O)CC(=O)O[C@H]1C)C[C@H](O)[C@H]2C(=O)O
0.25
3) Clc1ccc2nc(/C=C/c3ccncc3)ccc2c1
31.2
4) Cc1ccc2nc(-c3ccncc3)ccc2c1
31.2
5) C(=C\c1ccc2ccccc2n1)/c1ccncc1
31.2

Provide MIC80 for all items below, preserving their order.
1. CCc1ccc2nc(-c3ccccn3)ccc2c1
2. c1ccc2nc(-c3ccncc3)ccc2c1

15.6
31.2

====

# System: Nannizzia gypsea
# Measurement notes: Antifungal activity against Microsporum gypseum CCC 115 after 48 hrs by broth microdilution technique
# Format: functional
# Conditions used: CCC 115, 48 h
Would you mind telling me the reported MIC of each entry?

1. C(=C\c1ccc2ccccc2n1)/c1ccncc1
31 µg/mL
2. Fc1ccc2nc(/C=C/c3ccccn3)ccc2c1
125 µg/mL
3. c1ccc2nc(-c3ccncc3)ccc2c1
62 µg/mL
4. Cc1ccc2nc(-c3ccncc3)ccc2c1
62 µg/mL
5. Clc1ccc2nc(/C=C/c3ccncc3)ccc2c1
62 µg/mL

Shifting focus to the compound that follows.
Recorded MIC for Clc1ccc2nc(/C=C/c3cccnc3)ccc2c1 , please?
250 µg/mL

====

# System: Aspergillus niger
# Measurement notes: Antifungal activity against Aspergillus niger ATCC 9029 after 48 hrs by broth microdilution technique
# Assay type: functional
# Conditions used: ATCC 9029, 48 h
Quantity kind: MIC

1) Clc1ccc2nc(-c3ccncc3)ccc2c1
> 250 µg/mL
2) Fc1ccc2nc(/C=C/c3ccccn3)ccc2c1
> 250 µg/mL

Recorded MIC for Clc1ccc2nc(-c3cccnc3)ccc2c1 , please?
> 250 µg/mL

====

# Test system: Candida tropicalis
# Measurement notes: Antifungal activity against Candida tropicalis CCC 131 after 48 hrs by broth microdilution technique
# Type: functional
# Conditions used: CCC 131, 48 h
Quantity kind: MIC80 (µg/mL)
Give bare numbers, in µg/mL.

1. C[C@@H]1[C@H](O)[C@@H](C)/C=C/C=C/C=C/C=C/C=C/C=C/C=C/[C@H](O[C@@H]2O[C@H](C)[C@@H](O)[C@H](N)[C@@H]2O)C[C@@H]2O[C@](O)(C[C@@H](O)C[C@@H](O)[C@H](O)CC[C@@H](O)C[C@@H](O)CC(=O)O[C@H]1C)C[C@H](O)[C@H]2C(=O)O [AMPHOTERICIN B]
0.5
2. Clc1ccc2nc(/C=C/c3ccncc3)ccc2c1
125

Provide MIC80 for all items below, preserving their order.
1. C(=C\c1ccc2ccccc2n1)/c1ccncc1
2. Fc1ccc2nc(/C=C/c3ccccn3)ccc2c1

[62.5, 125]

====

Would you mind telling me the reported MIC of each entry?
# Tested on: Nannizzia gypsea
# Measurement notes: Antifungal activity against Microsporum gypseum CCC 115 after 48 hrs by broth microdilution technique
# Type: functional
# Conditions used: CCC 115, 48 h
Answers are plain numbers, in µg/mL.

1. CCc1ccc2nc(-c3ccccn3)ccc2c1
62

Provide MIC for all items below, preserving their order.
1. C(=C\c1ccc2ccccc2n1)/c1cccnc1
2. CN(C/C=C/C#CC(C)(C)C)Cc1cccc2ccccc12 [TERBINAFINE]

62
0.04

Value source: ChEMBL document CHEMBL2157922
